B1: CRYL1 (parent)
chain: RNALENIRKEMKLLEQAGSLKGSL

Variants of: B1
assay.text: protein stability index of a GFP-peptide fusion (GPS, HEK-293T) (PSI 1-6); higher = more stable;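 also: lentivirally expressed fusions sorted by FACS into six bins by GFP to DsRed ratio, PSI derived from sequencing read proportions per bin multiplied by bin number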
condition.parameters: c terminus: a fixed tail appended
Threshold check on protein stability index: at or above 3 gives criterion met, strictly below gives criterion not met.

[
  {
    "variant.string": "S23Y",
    "qualitative.label": "criterion not met"
  },
  {
    "variant.string": "Q16Y",
    "qualitative.label": "criterion not met"
  },
  {
    "variant.string": "G22C",
    "qualitative.label": "criterion not met"
  },
  {
    "variant.string": "N2E",
    "qualitative.label": "criterion met"
  },
  {
    "variant.string": "E5G",
    "qualitative.label": "criterion met"
  },
  {
    "variant.string": "G18A",
    "qualitative.label": "criterion met"
  },
  {
    "variant.string": "L13R",
    "qualitative.label": "criterion met"
  },
  {
    "variant.string": "A3M",
    "qualitative.label": "criterion met"
  },
  {
    "variant.string": "E10F",
    "qualitative.label": "criterion not met"
  },
  {
    "variant.string": "A17R",
    "qualitative.label": "criterion met"
  }
]

Please look at the following variant next.
Exam item: Record "K21S" ; criterion: protein stability index no lower than 3. Met?
Marked response: criterion met
